I'd appreciate it if you could supply cell viability values for the items below.
test system: U2OS; experiment: cell viability relative to DMSO; higher = less toxic; conditions: 72 h; 1 nM
Give bare numbers, in %.

Look over these answered cases.
Task: Any idea what its cell viability is? The compound is CO[C@H]1C[C@H](O[C@H]2CC[C@@]3(C)[C@H](CC[C@@H]4[C@@H]3CC[C@]3(C)[C@@H](C5=CC(=O)OC5)[C@@H](OC(C)=O)C[C@]43O)C2)O[C@@H](C)[C@@H]1O
Output: 104

Task: Could you do the same for CC(C)c1cccc2c(-c3ccccc3)cc(-c3ccc(-c4ccc(C(=O)O)cc4)[nH]3)nc12 , please?
Output: 97.5

Task: Next entry: C=CC(=O)Nc1cccc(Oc2nc(Nc3ccc(N4CCN(C)CC4)cc3)nc3ccsc23)c1
Output: 100

Continuing:
Task: So what's the measured cell viability for this one? NC(=O)NCCC[C@H](N)C(=O)O
Output: 98.7

* * *

test system: Calu-3; experiment: cell viability relative to DMSO; higher = less toxic; conditions: 72 h; 10000 nM
Assignment: determine reported cell viability for the given compounds.
Answers are plain numbers, in %.

Recorded results for 5 compounds are shown here.
Task: Sample CNCCC=C1c2ccccc2CCc2ccccc21 — what was its cell viability?
Output: 82.1

Task: Try CN(C)CCc1ccc(O)cc1 next.
Output: 101

Task: Also CO[C@H]1C[C@@H]2CC[C@@H](C)[C@@](O)(O2)C(=O)C(=O)N2CCCC[C@H]2C(=O)O[C@H]([C@H](C)C[C@@H]2CC[C@H](n3cnnn3)[C@H](OC)C2)CC(=O)[C@H](C)/C=C(\C)[C@@H](O)[C@@H](OC)C(=O)[C@H](C)C[C@H](C)/C=C/C=C/C=C/1C , if possible.
Output: 52.2

Task: Also O=C(O)COc1cccc(-c2ocnc2-c2nc(-c3ccccc3)c(-c3ccccc3)o2)c1 , if possible.
Output: 105

Task: Okay, and CN(C)C(=O)c1ccc(S(=O)(=O)c2ccc(NC(=O)[C@@](C)(O)C(F)(F)F)c(Cl)c2)cc1 ?
Output: 102

Quick batch: cell viability for everything below.
1. CC(C)Oc1cccc(CC(=O)N2CCC[C@](CC[N+]34CCC(c5ccccc5)(CC3)CC4)(c3ccc(Cl)c(Cl)c3)C2)c1
2. NCCc1c[nH]c2ccc(C(N)=O)cc12

Output:
1: 99.1; 2: 102

* * *

tested on: Vero E6; test: drug sensitivity score (DSS) for viability; higher = more toxic; extreme values may be limits of the assay; conditions: 72 h
experimentalReadout: drug sensitivity score
Answers are plain numbers.

Task: Which drug sensitivity score is reported for this compound? CC(C)(O)C(=O)Nc1ccc([N+](=O)[O-])c(C(F)(F)F)c1 [2-hydroxyflutamide]
Output: 0

Task: Now this one: CC(C)(C)NC(=O)[C@@H](c1cccnc1)N(C(=O)c1ccco1)c1ccc(C(C)(C)C)cc1
Output: 0

Task: And CC(C)=CCC/C(C)=C/CC/C(C)=C/CSc1ccccc1C(N)=O [farnesyl-thiosalicylic-acid-amide] ?
Output: 0

Task: What about COc1ccc(OC)c2c(=S)c3ccccc3[nH]c12 ?
Output: 0

Task: // repeat for CC(C)NCC(O)COc1cccc2[nH]ccc12 (configuration not stated) and report
Output: 0

Task: Same lookup for C[C@@H](Nc1cc(F)cc(F)c1)c1cc(C(=O)N(C)C)cc2c(=O)cc(N3CCOCC3)oc12 , please.
Output: 3.8

Working through the 5 compounds below one at a time, give drug sensitivity score for each.
1. Cc1ccc(CCCO)c(NCc2ccc3nc(NCCCN4CCOCC4)n(Cc4nc(C)ccc4O)c3c2)c1
2. CCOC(=O)c1ccccc1OC(N)=O [ethyl-2-(carbamoyloxy)benzoate]
3. CO[C@H]1C[C@H](O[C@H]2CC[C@@]3(C)[C@H](CC[C@@H]4[C@@H]3CC[C@]3(C)[C@@H](C5=CC(=O)OC5)[C@@H](OC(C)=O)C[C@]43O)C2)O[C@@H](C)[C@@H]1O
4. CC(C)(Oc1ccc(C2CC2(Cl)Cl)cc1)C(=O)O (configuration not stated) [ciprofibrate]
5. NS(=O)(=O)c1cc(C(=O)O)cc(N2CCCC2)c1Oc1ccccc1 [piretanide]

Output:
0
0
32.3
0
0

Parameters: items (list). Returns: drug sensitivity score for each item.
1. C[C@H]1COc2c(C3(N)CC3)c(F)cc3c(=O)c(C(=O)O)cn1c23
2. CN(Cc1cnc2nc(N)nc(N)c2n1)c1ccc(C(=O)N[C@@H](CCC(=O)O)C(=O)O)cc1 [methotrexate]

Output:
1. 0
2. 16.1

Record drug sensitivity score per entry; entries follow.
1. COc1ccc2c(c1)c(C1=C(c3c[nH]c4ccccc34)C(=O)NC1=O)cn2CCCN(C)C
2. COc1ccc(Cl)cc1NC(=O)Nc1cc(C)nc2ccccc12
3. CC1(C)OC[C@@H](COC(=O)CCc2ccc(OC[C@@H](O)CNCCNC(=O)N3CCOCC3)cc2)O1
4. O=C1O[C@H]([C@@H](O)CO)C([O-])=C1O.[Na+] [sodium-ascorbate]

Output:
1: 0.7; 2: 0; 3: 0; 4: 0

* * *

system: Caco-2; assay: cell viability relative to DMSO; higher = less toxic; conditions: 72 h; 1 nM
experimentalReadout: cell viability (%)
Give bare numbers, in %.

Task: What does the record list as cell viability for O=C(Cn1ccnc1[N+](=O)[O-])NCc1ccccc1 ?
Output: 98

Task: // repeat for CC(C)N(CCCNC(=O)Nc1ccc(C(C)(C)C)cc1)C[C@H]1O[C@@H](n2cc(Br)c3c(N)ncnc32)[C@H](O)[C@@H]1O and report
Output: 91.2

Task: Consider next the molecule C[C@@]12CC[C@@H]3[C@@](CC[C@H]4[C@@]3(C)CCC[C@@]4(C)C(=O)O)(CC1=O)C2 in the same way.
Output: 87.5

Would you mind giving cell viability for every molecule in the list below?
1. COc1ccc(-c2ccc3c(N4CCOC[C@@H]4C)nc(N4CCOC[C@@H]4C)nc3n2)cc1CO
2. CCCn1c(=O)c2nc(-c3ccccc3)[nH]c2n(CCC)c1=O
3. C[C@](N)(Cc1ccc(O)c(O)c1)C(=O)O
4. COc1c(Nc2ccc(S(C)(=O)=O)nc2C)ncnc1OC1CCN(C(=O)OC(C)C)CC1
5. Nc1cc(C(F)(F)F)c(-c2cc(N3CCOCC3)nc(N3CCOCC3)n2)cn1

Output:
[94.3, 91.1, 97.5, 96.5, 95.3]

* * *

tested on: Caco-2; assay: cell viability relative to DMSO; higher = less toxic; settings: 72 h; 1 nM
experimentalReadout: cell viability (%)
Answers are plain numbers, in %.

Task: Could you share which cell viability value was measured for Clc1ccc(N2CCN(Cc3c[nH]c4ncccc34)CC2)cc1 ?
Output: 103

Task: Same lookup for Cc1ccccc1-c1cc(N2CCN(C)CC2)ncc1N(C)C(=O)C(C)(C)c1cc(C(F)(F)F)cc(C(F)(F)F)c1 , please.
Output: 93.2

Task: Please do the same for CCc1ccccc1OC[C@@H](O)CN[C@H]1CCCc2ccccc21 as well.
Output: 102

Task: What do we get for COC(=O)/C=C/C(=O)N[C@@H]1CC[C@@]2(O)[C@H]3Cc4ccc(O)c5c4[C@@]2(CCN3CC2CC2)[C@H]1O5 ?
Output: 104

Task: Request: O=C1NCN(c2ccccc2)C12CCN(CC1COc3ccccc3O1)CC2 (stereo not drawn)
Output: 95.2

Task: # repeat for N[C@@H]1[C@H]2CN(c3nc4c(cc3F)c(=O)c(C(=O)O)cn4-c3ccc(F)cc3F)C[C@@H]12
Output: 95.6

Task: Also O=C(OCC(COC(=O)c1cccnc1)(COC(=O)c1cccnc1)COC(=O)c1cccnc1)c1cccnc1 ?
Output: 93.9

In the following, a different compound is considered.
Task: Endpoint output: cell viability of CCOc1cc(/C=C2/C(=O)N(c3ccccc3)N=C2C)cc(Cl)c1OCC(=O)OC . Value?
Output: 102

* * *

Would you kindly list cell viability for each of these compounds?
system: Calu-3; test: cell viability relative to DMSO; higher = less toxic; settings: 72 h; 1 nM
Give bare numbers, in %.

Task: Item CN1CCC[C@@H](CC2c3ccccc3Sc3ccccc32)C1 (racemic) [metixene] has what recorded cell viability?
Output: 102

Hello, I would appreciate it if you could give cell viability for each entry below.
1. CN1CCN(c2ccc(-c3cccc(CN4CCOCC4)c3)cc2NC(=O)c2c[nH]c(=O)cc2C(F)(F)F)CC1 [OICR-9429]
2. C#C[C@]1(O)C=C[C@H]2[C@@H]3CCC4=CC(=O)CC[C@@H]4[C@H]3CC[C@@]21CC [gestodene]
3. CC(=O)Nc1ccc(C(=O)NC(C)(C)C)cc1 [CPI-1189]
4. O=C1Nc2ccc(I)cc2C1=Cc1cc(Br)c(O)c(Br)c1 [GW-5074]
5. COc1ccc(OC)c2c(=S)c3ccccc3[nH]c12
6. CC(C)=CCC/C(C)=C/CC/C(C)=C/CSc1ccccc1C(N)=O [farnesyl-thiosalicylic-acid-amide]
7. Nc1c2ccccc2nc2ccccc12 [9-aminoacridine]

Output:
97
95.9
108
95.1
105
106
94.4

Task: Record request: cell viability value, item C=CCNC(=O)c1cc([N+](=O)[O-])cc2c(=O)[nH]c(Nc3ccc(Cl)c(Cl)c3)nc12
Output: 104
